Molecular target: PARP2-QFRD (Homo sapiens, UniProt Q9UGN5-2 1-570, Q112R;F113D)
Assay: fluorescence polarization; 50 mM NaCl, 1 mM MgCl2; Hill 0.9; FP/FRET: 50 mM Tris-HCl pH 8, 50 mM NaCl, 1 mM MgCl2, 0.1 mM EDTA, 0.1 mM TCEP, 0.01% NP-40, temperature not stated; EMSA: 20 mM Tris pH 7.5, 1 mM EDTA, 1 mM DTT, 4 C
Details: protein: recombinant; (HisTrap purified); label: 6-FAM on 5' end of bottom strand; blunt
assay.readout: Kd (nM)
Your answer should be a plain number; it is taken to be in nM.

Can you share its Kd? I mean this binder: p18mer_fluorescein (dsDNA, 5'-phosphate on top strand) DNA 1: GGGTTGCGGCCGCTTGGG DNA 2: CCCAAGCGGCCGCAACCC
17.1
